Ref: patent EP1200395B1

So I've got a bunch of molecules here, and I need their Chemotaxis Assay 0.1 µg/ml (inhibition %) values.
- target.of.assay: CCR-3 (Homo sapiens, UniProt P51677)
- assay.remarks: Eotaxin-induced chemotaxis of CCR-3 transfectant cells (CCR3/U937)
- Format: cell-based
- Design: expressed in transfected cells; host or cells: U937
- experimental.setup: test compound 0.1 µg/ml; eotaxin 1 x 10^-9 M; CCR3/U937 transfectants; 37 °C, 1 hour
Lab book: enter the figure in %, no units written.

Hi! What's the reported Chemotaxis Assay 0.1 µg/ml (inhibition %) for CC[N+](CCCNC(=O)Nc1ccccc1)(CCOCCOC)CCc1ccc(Cl)cc1.[I-] (centres unmarked) [compound 412] on CCR-3 (Homo sapiens, UniProt P51677)?
84

What Chemotaxis Assay 0.1 µg/ml (inhibition %) appears in the records for this molecule with CCR-3 (Homo sapiens, UniProt P51677)? C=C(C)C[N+](CC)(CCCNC(=O)Nc1ccc(Br)cc1)CCc1cccc(Cl)c1.[I-] (centres unmarked) [compound 378]
81

CCR-3 (Homo sapiens, UniProt P51677) / Chemotaxis Assay 0.1 µg/ml (inhibition %) / C=C(C)C[N+](CC)(CCCNC(=O)Nc1ccccc1)CCc1ccccc1.[I-] (centres unmarked) [compound 426] : value?
44

Lab note: need Chemotaxis Assay 0.1 µg/ml (inhibition %) for CC[N+](CCCNC(=O)Nc1ccc(Br)cc1)(CCc1cccc(Cl)c1)CC1CCC1.[I-] (centres unmarked) [compound 376] on CCR-3 (Homo sapiens, UniProt P51677), anyone have it?
87

What measured Chemotaxis Assay 0.1 µg/ml (inhibition %) is associated with CC[N+](CCF)(CCCNC(=O)Nc1ccc(C#N)cc1)CCc1ccc(Cl)cc1Cl.[I-] (centres unmarked) [compound 404] on CCR-3 (Homo sapiens, UniProt P51677)?
47

Please state recorded Chemotaxis Assay 0.1 µg/ml (inhibition %) (tested on CCR-3 (Homo sapiens, UniProt P51677)) of CC[N+](CCF)(CCCNC(=O)Nc1ccc(C#N)cc1)CCc1cccc(Cl)c1.[I-] (centres unmarked) [compound 403]
77

Return Chemotaxis Assay 0.1 µg/ml (inhibition %) measured with CCR-3 (Homo sapiens, UniProt P51677) given this molecule: C=C(C)C[N+](CC)(CCCNC(=O)Nc1ccc(C(F)(F)F)cc1)CCc1cccc(Cl)c1.[I-] (centres unmarked) [compound 390]
51

Lab note: need Chemotaxis Assay 0.1 µg/ml (inhibition %) for CC[N+](CCCNC(=O)Nc1ccc(Cl)c(Cl)c1)(CCOCCOC)CCc1cccc(F)c1.[I-] (centres unmarked) [compound 360] on CCR-3 (Homo sapiens, UniProt P51677), anyone have it?
70

* * *

- target.of.assay: UniProtKB P51677
- Sequence (P51677 1-355): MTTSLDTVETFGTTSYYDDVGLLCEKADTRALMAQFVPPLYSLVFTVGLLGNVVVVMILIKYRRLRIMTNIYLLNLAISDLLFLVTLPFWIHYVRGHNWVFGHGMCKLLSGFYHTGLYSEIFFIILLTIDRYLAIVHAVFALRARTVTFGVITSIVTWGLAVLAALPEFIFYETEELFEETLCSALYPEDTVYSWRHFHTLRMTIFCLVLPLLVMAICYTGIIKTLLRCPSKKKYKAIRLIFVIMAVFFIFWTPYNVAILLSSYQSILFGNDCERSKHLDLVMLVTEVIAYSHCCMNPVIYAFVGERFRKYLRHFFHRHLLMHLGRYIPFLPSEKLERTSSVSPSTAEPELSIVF
- assay.remarks: Eotaxin-induced chemotaxis of CCR-3 transfectant cells (CCR3/U937)
- Assay type: cell-based
- Design: expressed in transfected cells; host or cells: U937
- experimental.setup: 10 µM test compound; eotaxin 1 x 10^-9 M; CCR3/U937 cells (Table 3c)
reported.endpoint: Chemotaxis Assay 10 µM (inhibition %)
Please state the number and follow it with the unit.

State the recorded Chemotaxis Assay 10 µM (inhibition %) for this entry: CC[N+](CCCNC(=O)Nc1ccc(Br)cc1)(CCCC(=O)OC)C1CCc2ccccc21.[I-] (stereo not drawn) [compound 314]
100%

So what does the record say about Chemotaxis Assay 10 µM (inhibition %) for CC[N+](CCCNC(=O)Nc1ccccc1)(CCc1ccc(Cl)cc1)Cc1cccc(C)c1.[I-] (stereo not drawn) [compound 347] ?
100%

Name the reported Chemotaxis Assay 10 µM (inhibition %) value associated with the molecule CC[N+](CCCNC(=O)Nc1ccccc1)(CCc1ccc(Cl)cc1)Cc1cccc(Oc2ccccc2)c1.[I-] (stereo not drawn) [compound 333]
100%

Item CC[N+](CCCO)(CCCNC(=O)Nc1ccccc1)CCc1ccc(Cl)cc1.[I-] (stereo not drawn) [Compound 299] has what recorded Chemotaxis Assay 10 µM (inhibition %)?
100%

Value lookup for Chemotaxis Assay 10 µM (inhibition %); key = CC[N+](CCCNC(=O)Nc1ccccc1)(CCc1ccc(Cl)cc1)CC1CCCCC1.[I-] (stereo not drawn) [compound 319]
100%

Which value of Chemotaxis Assay 10 µM (inhibition %) has been reported for CCC[N+](CC)(CCCNC(=O)Nc1ccc(Br)cc1)CCc1ccc(Cl)cc1.[I-] (stereo not drawn) [Compound 295] in the records?
100%

Consider the molecule CC[N+](CCCNC(=O)Nc1ccccc1)(CCc1ccc(Cl)cc1)Cc1ccc([N+](=O)[O-])cc1.[I-] (stereo not drawn) [compound 337] and give its measured Chemotaxis Assay 10 µM (inhibition %).
99%

Query: Chemotaxis Assay 10 µM (inhibition %); subject: CC[N+](CC)(CCCNC(=O)Nc1ccccc1)CCc1ccc(OC)cc1.[I-] [Compound 304]
66%

What value of Chemotaxis Assay 10 µM (inhibition %) has been reported for the following molecule? CCOC(=O)CCCCC[N+](CC)(CCCNC(=O)Nc1ccccc1)CCc1ccc(Cl)cc1.[I-] (stereo not drawn) [compound 321]
100%

Give its Chemotaxis Assay 10 µM (inhibition %) value. Item: CC[N+](CCCNC(=O)Nc1ccccc1)(CCc1ccc(Cl)cc1)Cc1ccc(C(=O)OC)cc1.[I-] (stereo not drawn) [Compound 303]
100%

What value of Chemotaxis Assay 10 µM (inhibition %) has been reported for the following molecule? CC[N+](CCCNC(=O)Nc1ccccc1)(CCc1ccc(Cl)cc1)Cc1ccc(OCc2ccccc2)cc1.[I-] (stereo not drawn) [compound 334]
100%

Endpoint output: Chemotaxis Assay 10 µM (inhibition %) of CC[N+](CCCNC(=O)Nc1ccccc1)(CCc1ccc(Cl)cc1)Cc1ccc(OCc2ccccc2)c(OCc2ccccc2)c1.[I-] (stereo not drawn) [compound 350] . Value?
59%

Form field: reported Chemotaxis Assay 10 µM (inhibition %) of CC[N+](CCCNC(=O)Nc1ccccc1)(CCc1ccc(Cl)cc1)Cc1ccc(Br)cc1.[I-] (stereo not drawn) [compound 340]
100%

# get_value(readout='Chemotaxis Assay 10 µM (inhibition %)', item= CC[N+](CCCNC(=O)Nc1ccc(Br)cc1)(CCCC(=O)OC)C(C)c1ccccc1.[I-] (stereo not drawn) [compound 312] )
97%

Please give the measured Chemotaxis Assay 10 µM (inhibition %) for this molecule: CC[N+](CCCNC(=O)Nc1ccccc1)(CCc1ccc(Cl)cc1)Cc1cc2c(cc1Cl)OCO2.[I-] (stereo not drawn) [compound 348]
100%

* * *

- target.of.assay: CCR-3 (Homo sapiens, UniProt P51677)
- assay.remarks: Calcium mobilization assay (inhibition of eotaxin-induced intracellular calcium mobilization in CCR3/HEK293 cells)
- Format: cell-based
- Set-up: expressed in transfected cells
- experimental.setup: 6.25 µg/ml test compound; eotaxin 10 nM; CCR3/HEK293 cells (Table 2a)
reported.endpoint: Ca^2+ mobilization 6.25 µg/ml (inhibition %)
// units = %; emit number, no label

Requested field: Ca^2+ mobilization 6.25 µg/ml (inhibition %). Item: "COc1ccc(NC(=O)NCCCN(CCOCc2ccccc2)CCc2ccc(OC)c(OC)c2)cc1"
51

// query Ca^2+ mobilization 6.25 µg/ml (inhibition %) value for entry "O=C(NCCCN(CCc1ccc(Cl)c(Cl)c1)C[C@@H]1CCCN1)Nc1ccc(Br)cc1"
59

Given the entry "CSCCCN(CCCNC(=O)Nc1ccc(Cl)c(C(F)(F)F)c1)Cc1ccc2c(c1)OCO2" , report its measured Ca^2+ mobilization 6.25 µg/ml (inhibition %).
50

Can you share its Ca^2+ mobilization 6.25 µg/ml (inhibition %)? I mean this compound: "CSCCCN(CCCNC(=O)Nc1cccc(C)c1)CCc1ccc(C)cc1"
53

I am curious: what Ca^2+ mobilization 6.25 µg/ml (inhibition %) value has been reported for CCN(CCCNC(=O)Nc1ccc(Cl)c(C(F)(F)F)c1)C1CCCc2ccccc21 (centres unmarked) ?
50

State the recorded Ca^2+ mobilization 6.25 µg/ml (inhibition %) for this entry: "Cc1cccc(NC(=O)NCCCN(Cc2ccc3c(c2)OCO3)CC(C)C)c1"
63

If you can, please state the reported Ca^2+ mobilization 6.25 µg/ml (inhibition %) value of "O=C(NCCCN(CCc1ccc(Cl)c(Cl)c1)C[C@@H]1CCCN1)Nc1ccccc1-c1ccccc1" .
68

Would you kindly share the measured Ca^2+ mobilization 6.25 µg/ml (inhibition %) for "Cc1ccc(CCN(CCCNC(=O)Nc2ccc(Br)cc2)CCCC(=O)O)cc1" ?
55
